Source of measurements: patent US9695461B2

Tested on: protease according to SEQ ID NO: 3
Test: Relative proteolytic activity with reversible inhibitor in liquid surfactant preparation (Example 1)
Assay type: biochemical
Settings: Table 1; boric acid in amount inhibiting starting enzyme by 20-40%; 50% conc. surfactant preparation, 0.92 mM AAPF, 25° C., pH 8.6; relative to same protease without inhibitor
// relative activity, Boric acid lookup, one value per entry
Output spec: scalar in %, unitless text.

S166Y: protease of SEQ ID NO: 3 with amino acid substitution S166Y in the count according to SEQ ID NO: 1 (protein, listed as Bacillus lentus) AQSVPWGISRVQAPAAHNRGLTGSGVKVAVLDTGISTHPDLNIRGGASFVPGEPSTQDGNGHGTHVAGTIAALNNSIGVLGVAPSAELYAVKVLGADGEGAISSIAQGLEWAGNNGMHVANLSLGSPSPSATLEQAVNSATSRGVLVVAASGNSGASSIYYPARYANAMAVGATDQNNNRASFSQYGAGLDIVAPGVNVQSTYPGSTYASLNGTSMATPHVAGAAALVKQKNPSWSNVQIRNHLKNTATSLGSTNLYGSGLVNAEAATR; 68

Measured relative activity, Boric acid of S166: protease according to SEQ ID NO: 3 used as the hydrolytic enzyme (starting enzyme) (protein, listed as Bacillus lentus) AQSVPWGISRVQAPAAHNRGLTGSGVKVAVLDTGISTHPDLNIRGGASFVPGEPSTQDGNGHGTHVAGTIAALNNSIGVLGVAPSAELYAVKVLGADGEGAISSIAQGLEWAGNNGMHVANLSLGSPSPSATLEQAVNSATSRGVLVVAASGNSGASSISYPARYANAMAVGATDQNNNRASFSQYGAGLDIVAPGVNVQSTYPGSTYASLNGTSMATPHVAGAAALVKQKNPSWSNVQIRNHLKNTATSLGSTNLYGSGLVNAEAATR : 83

Measured relative activity, Boric acid of S166A: protease of SEQ ID NO: 3 with amino acid substitution S166A in the count according to SEQ ID NO: 1 (protein, listed as Bacillus lentus) AQSVPWGISRVQAPAAHNRGLTGSGVKVAVLDTGISTHPDLNIRGGASFVPGEPSTQDGNGHGTHVAGTIAALNNSIGVLGVAPSAELYAVKVLGADGEGAISSIAQGLEWAGNNGMHVANLSLGSPSPSATLEQAVNSATSRGVLVVAASGNSGASSIAYPARYANAMAVGATDQNNNRASFSQYGAGLDIVAPGVNVQSTYPGSTYASLNGTSMATPHVAGAAALVKQKNPSWSNVQIRNHLKNTATSLGSTNLYGSGLVNAEAATR : 76
